Biological target: human A1 receptor (Homo sapiens, UniProt P30542)
Sequence (P30542 whole entry): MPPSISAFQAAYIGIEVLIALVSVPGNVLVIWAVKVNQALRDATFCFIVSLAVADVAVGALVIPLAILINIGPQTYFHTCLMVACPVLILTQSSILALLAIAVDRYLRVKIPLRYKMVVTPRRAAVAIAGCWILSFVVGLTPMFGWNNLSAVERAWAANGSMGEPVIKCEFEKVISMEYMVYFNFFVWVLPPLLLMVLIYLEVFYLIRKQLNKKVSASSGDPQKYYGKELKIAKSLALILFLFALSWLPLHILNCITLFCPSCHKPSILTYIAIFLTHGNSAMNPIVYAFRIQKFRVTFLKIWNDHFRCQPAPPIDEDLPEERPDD
Experiment: cAMP (HTRF) functional assay, recombinant CHO cells expressing human A1 receptor, forskolin + agonist CPA
Procedure: The functional activities of human A2A, A2B, A1 and A3 receptors were determined by quantification of cAMP, being the second messenger for adenosine receptors. […] Cells were seeded into 384-well plates, forskolin, test compounds and agonists (CPA for A1- and IB-MECA for A3-receptor) were added. After 30 min incubation, HTRF reagents (cAMP dynamic 2, Cis Bio) were added and the cellular cAMP levels were determined using the ENVISION (Perkin Elmer) plate reader. […]
pIC50: −log10 of the molar value.
observationType: pIC50

molecule="COc1ncc(N2CCOCC2)c2sc(NC(=O)N3CCC4(CCOC4)C3)nc12 (centres unmarked) [compound 9]" observationtype=pIC50 measuredresult="< 6.00"
molecule="COc1ncc(-c2ccccc2)c2sc(NC(=O)N3CCC4(CCOC4)C3)nc12 (centres unmarked) [compound 54]" observationtype=pIC50 measuredresult="> 6.00"
molecule="COc1ncc(C2CCOCC2)c2sc(NC(=O)c3cnn(C)c3)nc12 [compound 235]" observationtype=pIC50 measuredresult="> 7.00"
molecule="COc1ncc(-c2cnn(C)c2)c2sc(NC(=O)N3CCC4(CCOCC4)C3)nc12 [compound 81]" observationtype=pIC50 measuredresult="< 6.00"
molecule="COCCOc1cccc(-c2cnc(OC)c3nc(NC(=O)c4cnn(CCOC)c4)sc23)c1 [compound 233]" observationtype=pIC50 measuredresult="> 6.00"
molecule="COc1ncc(-c2cnn(C)c2)c2sc(NC(=O)N3CC[C@@]4(CCCOC4)C3)nc12 [compound 176]" observationtype=pIC50 measuredresult="< 6.00"
molecule="COCc1ccc(C(=O)Nc2nc3c(OC)ncc(C4CCOCC4)c3s2)cc1 [compound 23]" observationtype=pIC50 measuredresult="> 6.00"
molecule="COc1ncc(C2CCOCC2)c2sc(NC(=O)c3cnc(C)o3)nc12 [compound 147]" observationtype=pIC50 measuredresult="< 6.00"
molecule="COc1ncc(C2=CCOCC2)c2sc(NC(=O)N3CCC4(CCOCC4)C3)nc12 [compound 237]" observationtype=pIC50 measuredresult="> 6.00"
molecule="COCCOc1cccc(-c2c(F)nc(OC)c3nc(NC(=O)N4CCC5(CCOCC5)C4)sc23)c1 [compound 234]" observationtype=pIC50 measuredresult="> 7.00"
molecule="COc1ncc(-c2ccccc2F)c2sc(NC(=O)N3CCC4(CCOCC4)C3)nc12 [compound 195]" observationtype=pIC50 measuredresult="< 6.00"
molecule="COc1ncc(-c2ccccc2)c2sc(NC(=O)N3CC[C@@]4(CCCOC4)C3)nc12 [compound 204]" observationtype=pIC50 measuredresult="> 6.00"
molecule="COc1ncc(-c2cnn(C)c2)c2sc(NC(=O)N3CC[C@]4(CCCOC4)C3)nc12 [compound 177]" observationtype=pIC50 measuredresult="< 6.00"
molecule="COc1ncc(-c2ccccc2)c2sc(NC(=O)N3CC[C@]4(CCCOC4)C3)nc12 [compound 205]" observationtype=pIC50 measuredresult="< 6.00"
molecule="COCc1ccc(C(=O)Nc2nc3c(OC)ncc(-c4cnn(C)c4)c3s2)cc1 [compound 14]" observationtype=pIC50 measuredresult="> 6.00"
molecule="COc1ncc(-c2cccc(F)c2F)c2sc(NC(=O)N3CCC4(CCOCC4)C3)nc12 [compound 209]" observationtype=pIC50 measuredresult="< 6.00"
molecule="COc1ncc(-c2ccccc2)c2sc(NC(=O)[C@H]3C[C@@H]3OC)nc12 (racemic) [compound 202]" observationtype=pIC50 measuredresult="> 6.00"
molecule="COc1ncc(-c2cnn(C)c2)c2sc(NC(=O)c3ccc(CN(C)C)cc3)nc12 [compound 22]" observationtype=pIC50 measuredresult="< 6.00"
molecule="COc1ncc(C2CCOCC2)c2sc(NC(=O)c3ccc(C(=O)N(C)C)cc3)nc12 [compound 113]" observationtype=pIC50 measuredresult="< 6.00"
molecule="COCCn1cc(C(=O)Nc2nc3c(OC)ncc(N4CCOCC4)c3s2)cn1 [compound 4]" observationtype=pIC50 measuredresult="< 6.00"
molecule="COCCn1cc(C(=O)Nc2nc3c(OC)ncc(-c4cnn(C)c4)c3s2)cn1 [compound 13]" observationtype=pIC50 measuredresult="> 7.00"
molecule="COc1ncc(C2CCOCC2)c2sc(NC(=O)c3ccc(CN4CCCC4=O)cc3)nc12 [compound 180]" observationtype=pIC50 measuredresult="> 6.00"
molecule="COc1ncc(N2CCOCC2)c2sc(NC(=O)c3ccc(C(=O)N(C)C)cc3)nc12 [compound 15]" observationtype=pIC50 measuredresult="< 6.00"
molecule="COc1ncc(C2CCOCC2)c2sc(NC(=O)c3cnc(N)s3)nc12 [compound 241]" observationtype=pIC50 measuredresult="> 6.00"
molecule="COc1ncc(N2CCOCC2)c2sc(NC(=O)c3cnn(C)c3)nc12 [compound 171]" observationtype=pIC50 measuredresult="> 6.00"
molecule="COCc1ccc(C(=O)Nc2nc3c(OC)ncc(N4CCOCC4)c3s2)cc1 [compound 3]" observationtype=pIC50 measuredresult="< 6.00"
molecule="COc1ncc(-c2ccccc2)c2sc(NC(=O)C3(N)CC3)nc12 [compound 203]" observationtype=pIC50 measuredresult="> 6.00"
molecule="COc1ncc(-c2ccncc2)c2sc(NC(=O)N3CCC4(CCOCC4)C3)nc12 [compound 212]" observationtype=pIC50 measuredresult="< 6.00"
molecule="COc1ncc(C2CCOCC2)c2sc(NC(=O)c3cnc(C)s3)nc12 [compound 181]" observationtype=pIC50 measuredresult="> 6.00"
molecule="COc1ccc(N2CCOCC2)c2sc(NC(=O)N3CCC(C)(O)CC3)nc12 [Tozadenant, reference compound]" observationtype=pIC50 measuredresult="< 6.00"
molecule="COc1ncc(C2CCOCC2)c2sc(NC(=O)N3CCC(C)(O)CC3)nc12 [compound 30]" observationtype=pIC50 measuredresult="> 6.00"
molecule="COc1ncc(-c2ccccc2)c2sc(NC(=O)N3CC[C@@]4(CCOC4)C3)nc12 [compound 208]" observationtype=pIC50 measuredresult="< 6.00"
